Data provenance is PubChem BioAssay (NCI).

- Tested on: HL-60(TB) leukemia
- procedure-details: NCI-60 one-dose screen, 48 h (100 = growth as untreated, 0 = no growth, -100 = all killed)
- run-parameters: 10 µM unless noted
This is part of a sample that, as a whole, favours compounds with a hit. Of some 83,000 tested, about 20% had one in any assay.
quantity-name: growth (%)
Give your result in % as a bare value.

May I ask what growth has been recorded for COc1cc2nc(-c3ccc(Cl)cc3)cc(OCCCN3CCCC3)c2cc1OC ?
32.4

Entry to check: COc1cc(C)cc2oc3oc(=N)c(C(=O)c4ccccc4)cc3c(=O)c12
112

Consider next the molecule CCCCNC(=O)C(=O)NCCCC in the same way.
113

Also, COc1ccc(OC)c2c1CCC1(C2)NC(=O)NC1=O (centres undefined) please.
111

Repeat for the following molecule: COC1=CC(=O)c2c(O)c3c(c(O)c2C1=O)CC(C)(O)OC3 (centres undefined)
-57.1

---
# query: growth of entry CCc1ccc(OCc2ccccc2C(=O)Nc2ccc3nc(C)cc(N)c3c2)cc1
-75.9

Now give it for CSc1ccc(OC(C)=O)cc1C too.
97.7

And then O=c1cc(-c2ccccc2)[nH]n1-c1nc2ccccc2[nH]1 , what is it?
11

Quick one: COc1ccccc1-c1nc2ccc3[nH]ncc3c2c2c1CCCC2
89.6

Another molecule to look at: O=C(Nc1ccc(Oc2cccc(Cl)c2)c(Cl)c1)c1cccnn1
89.5

Also CC12O[C@H](C[C@@H](O)[C@H]1O)n1c3ccccc3c3c4c(c5c6ccccc6n2c5c31)C(=O)N(CCCN)C4=O , if possible.
4.62

What would you report for O=C(c1ccc(Cl)cc1)c1ccccc1Cl ?
96.4

Try the molecule COc1ccc(C2=NOC(CC(=O)N(CCO)CCO)C2)cc1OC1CCCC1 (centres undefined)
110

Now consider NS(=O)(=O)c1cc(Br)c2c(c1)S(=O)(=O)NCN2 and answer again.
71.2

Continue with Cc1cccc(NC(=O)Nc2ccc(-n3cnc4cc(-c5ccc(O)cc5)ccc43)cc2)c1
8.69

Param item: NS(=O)(=O)c1ccc(-n2nc(-c3ccccc3)ccc2=O)cc1
89.9

And the next one, Cc1cc(/C=C2\SC(=Nc3ccccc3)N(C3CCCC3)C2=O)c(C)n1-c1ccc(Cl)cc1 ?
-27.3

Again, but for O=C1NC(=O)C(CSc2ccccc2)(c2ccccc2)N1 (centres undefined)
99.9

Try NC1=NC(c2ccccc2OS(=O)(=O)c2ccc(Br)cc2)n2c(nc3ccccc32)N1 (centres undefined) next.
69.7

Same read-out for COc1ccc(C2C3=C(COC3=O)N(CCO)c3cc4c(cc32)CCC4)cc1OC (centres undefined) ?
0.0588

Moving on to COc1cc(/C=C/c2cc(/C=C/c3ccc(O)c(OC)c3)n(C(=O)Nc3ccc(C)cc3C)n2)ccc1O
-30.4

Please do the same for c1ccc(-c2nnc(-c3ccccn3)s2)nc1 as well.
95.8

For O=C(Nc1ccc(-n2cc(-c3ccncc3)c(-c3ccc(Cl)c(O)c3)n2)cc1)c1ccc(Cl)c(C(F)(F)F)c1 then?
-29.1

What would you report for Cc1cc2c(c(C)c1Cl)C(=O)/C(=C/c1cccc([N+](=O)[O-])c1)O2 ?
98.8

Cool, now O=C1/C(=C\c2cccn2Cc2ccccc2)c2ccccc2N1c1c(Cl)cccc1Cl
71
